pEC50 for assorted substances
Biological target: mouse GIP receptor (mGIPr) (Mus musculus)
Construct: expressed in transfected cells; host or cells: HEK293s or CHO cells
Sequence (Q0P543 19-460): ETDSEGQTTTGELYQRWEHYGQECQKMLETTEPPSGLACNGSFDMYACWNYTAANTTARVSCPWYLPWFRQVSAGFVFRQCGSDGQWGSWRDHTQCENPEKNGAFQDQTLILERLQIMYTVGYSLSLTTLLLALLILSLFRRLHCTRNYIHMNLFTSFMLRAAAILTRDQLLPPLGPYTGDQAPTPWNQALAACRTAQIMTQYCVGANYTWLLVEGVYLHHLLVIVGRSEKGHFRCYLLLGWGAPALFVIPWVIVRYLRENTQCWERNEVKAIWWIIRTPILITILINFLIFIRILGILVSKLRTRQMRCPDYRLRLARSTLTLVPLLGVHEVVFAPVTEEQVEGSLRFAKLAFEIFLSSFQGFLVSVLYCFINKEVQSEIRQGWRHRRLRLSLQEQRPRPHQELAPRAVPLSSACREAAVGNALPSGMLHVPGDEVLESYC
Experiment: BSA-cAMP assay, cells expressing mouse GIP receptor
Type: cell-based
Conditions: Batch 1; BSA-cAMP assay; read-out: mGIPr cAMP activity EC50
pEC50: −log10 of the molar value.

| Substance | pEC50 |
| --- | --- |
| IP380: Fc fusion, IgG1-fusion, SEQ ID NO:376; agonist peptide YSEGTFTSDYSKLLEEEAVRLFIEFLLAGG (YSEGTFTSDYSKLLEEEAVRLFIEFLLAGGGGGGSGGGGSGGGGSGGGGSATHTCPPC) | 8.18 |
| IP385 (YSEGTFTSDYSIYLDRQAIDEFIAWLLKGGGGGGGSGGGGSGGGGSGGGGSACPPC) | 7.74 |
| IP311 (YSEGTFISDYSIALAAAAIDDFVNWLLAGGGGGGGSGGGGSGGGGSGGGGSATHTCPPC) | 9.02 |
| IP343 (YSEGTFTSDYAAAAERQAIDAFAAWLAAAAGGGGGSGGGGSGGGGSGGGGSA) | 6.06 |
| IP407: Fc fusion, IgG1-TM, SEQ ID NO:384; agonist peptide YSEGTFTSDYSKLLEEEAIRLFIEWLLAGG (YSEGTFTSDYSKLLEEEAIRLFIEWLLAGGGGGGSGGGGSGGGGSGGGGSATHTCPPC) | 8.64 |

Each recorded value in this set is attributed to patent US20160185837A1.
